Documented RP-LC retention time across a set of molecules
Assay: gradient 5% acetonitrile 3 min, to 50% in 2 min, to 85% in 15 min, held 3 min, 100 µL/min
Details: column: Zorbax Extend-C18 2.1 x 50 mm; eluents: water / acetonitrile, 0.1% formic acid
Report the value in s with no unit label.

Report measured RP-LC retention time; entry is `Cc1ccc2[nH]cc(CCNC(=O)COc3ccc(Cl)cc3)c2c1`
955

Please report the measured RP-LC retention time for `Cc1cc(C)cc(NC(=O)C2CCN(S(=O)(=O)c3c(C)[nH]c(C)c3C(=O)N3CCCC3)CC2)c1`
695

Please report the measured RP-LC retention time for O=C(c1ccccc1F)N1CCN(C(=O)c2nnn3c2COC(c2ccc(Cl)cc2)C3)CC1 (stereo not given)
914

Continuing:
Give the value of RP-LC retention time reported for the following: `CCn1cc(CCNC(=O)Nc2ccccc2Br)c2cccnc21`
774

Complete the entry with RP-LC retention time for `CCOC(=O)c1c(C)[nH]c(CCC(=O)NCCC(C)C)c1C`
816
